Hey, just so you know, these numbers are from ChEMBL document CHEMBL3232987.

MIC values, listed per item
# System: Staphylococcus aureus
# Experiment description: Antibacterial activity against gentamicin-resistant Staphylococcus aureus ATCC 33592 after 24 hrs by spectrophotometric analysis
# Type: functional, organism-based
# Measurement conditions: Staphylococcus aureus, ATCC 33592, 24 h
Give just the number in µg/mL; leave the unit off.

Past entries and their recorded results:
{"Molecule": "CC(C)(C)n1nnnc1C(c1ccc(F)cc1)N1CCN(c2cc3c(cc2F)c(=O)c(C(=O)O)cn3Cc2ccc(C(F)(F)F)cc2)CC1 (centres undefined)", "MIC [µg/mL]": 2.5}
{"Molecule": "CCn1cc(C(=O)O)c(=O)c2cc(F)c(N3CCN(C(c4ccc(OC)c5ccccc45)c4nnnn4C(C)(C)C)CC3)cc21 (centres undefined)", "MIC [µg/mL]": 50}
{"Molecule": "CC(C)c1ccc(C(c2nnnn2C(C)(C)C)N2CCN(c3cc4c(cc3F)c(=O)c(C(=O)O)cn4Cc3ccc(C(F)(F)F)cc3)CC2)cc1 (centres undefined)", "MIC [µg/mL]": 0.87}

Let's switch to this molecule now.
Looking up CCn1cc(C(=O)O)c(=O)c2cc(F)c(N3CCN(C(c4ccncc4)c4nnnn4C4CCCCC4)CC3)cc21 (centres undefined) , I found its MIC recorded as 0.6
